tested on: SF-539; experiment: Antiproliferative activity was determined for 50% growth inhibition against human CNS SF-539 cell line; type: functional
Catalogue of GI50 values
Provide the reading as a plain figure in nM.

Form field: reported GI50 of "COc1cc2c3c(n(CCCNCCO)c(=O)c2cc1OC)-c1cc2c(cc1C3=O)OCO2.Cl" 40

Look up GI50 for this compound: "COc1cc2c(cc1OC)-c1c(c3cc(OC)c(OC)cc3c(=O)n1CCCNCCCCO)C2=O" 60

Requested read-out: GI50. Entry: COc1cc2c3c(n(CCCNCCO)c(=O)c2cc1OC)-c1cc2c(cc1C3=O)OCO2 [LMP-744] 90

If you can, please state the reported GI50 value of "COc1cc2c(cc1OC)-c1c(c3cc(OC)c(OC)cc3c(=O)n1CCCNCCCO)C2=O" . 80

Report GI50 for "COc1cc2c(cc1OC)-c1c(c3cc(OC)c(OC)cc3c(=O)n1CCCNCCCCO)C2=O.Cl" please. 590

Can you look up the measured GI50 of "COc1cc2c(cc1OC)-c1c(c3cc(OC)c(OC)cc3c(=O)n1CCCNCCCO)C2=O.Cl" for me? 420

Data request, read-out GI50, for "COc1cc2c(cc1OC)-c1c(c3cc(OC)c(OC)cc3c(=O)n1CCCNCCO)C2=O.Cl" 160

Tell me the measured GI50 of "COc1cc2c(cc1OC)-c1c(c3cc(OC)c(OC)cc3c(=O)n1CCCNCCO)C2=O" , please. 10

* * *

A collection of molecules and their measured GI50
test system: SN12C; test: Antiproliferative activity was determined for 50% growth inhibition against human renal SN12C cell line; type: functional
# output: bare number, implied unit nM

| CHEMICAL_STRING | TARGET_ENTITY | DISPLAY_UNIT | GI50 |
| --- | --- | --- | --- |
| COc1cc2c(cc1OC)-c1c(c3cc(OC)c(OC)cc3c(=O)n1CCCNCCO)C2=O.Cl | SN12C | nM | 110 |

Consider the molecule shown here: "COc1cc2c(cc1OC)-c1c(c3cc(OC)c(OC)cc3c(=O)n1CCCNCCCO)C2=O.Cl" What is its recorded GI50? 230

Item under review: "COc1cc2c(cc1OC)-c1c(c3cc(OC)c(OC)cc3c(=O)n1CCCNCCCCO)C2=O" . Reported GI50? 110

Field request: GI50 | item: "COc1cc2c(cc1OC)-c1c(c3cc(OC)c(OC)cc3c(=O)n1CCCNCCCCO)C2=O.Cl" 280

Recorded GI50 for "COc1cc2c(cc1OC)-c1c(c3cc(OC)c(OC)cc3c(=O)n1CCCNCCO)C2=O" , please? 50

* * *

tested on: OVCAR-3; assay: Antiproliferative activity was determined for 50% growth inhibition against human ovarian OVCAR-3 cell line; assay type: functional
QUANTITY_NAME: GI50 (nM)
Output spec: scalar in nM, unitless text.

Here are 5 compounds together with their reported answers.
| CHEMICAL_STRING | GI50, nM |
| --- | --- |
| COc1cc2c(cc1OC)-c1c(c3cc(OC)c(OC)cc3c(=O)n1CCCNCCCCO)C2=O | 3520 |
| COc1cc2c(cc1OC)-c1c(c3cc(OC)c(OC)cc3c(=O)n1CCCNCCCO)C2=O.Cl | 3800 |
| COc1cc2c3c(n(CCCNCCO)c(=O)c2cc1OC)-c1cc2c(cc1C3=O)OCO2 | 1500 |
| COc1cc2c(cc1OC)-c1c(c3cc(OC)c(OC)cc3c(=O)n1CCCNCCO)C2=O | 11200 |
| COc1cc2c(cc1OC)-c1c(c3cc(OC)c(OC)cc3c(=O)n1CCCNCCO)C2=O.Cl | 2280 |

Here's the next entry for you.
Item "COc1cc2c3c(n(CCCNCCO)c(=O)c2cc1OC)-c1cc2c(cc1C3=O)OCO2.Cl" has what recorded GI50? 350

* * *

test system: HOP-62; assay: Antiproliferative activity was determined for 50% growth inhibition against human lung HOP-62 cell line; format: functional; settings: Homo sapiens, HOP-62
Sorting guide: entries reporting GI50 beneath 300 nM go in the Yes pile, the rest go in the No pile.

Completed entries (count: 2):
| CHEMICAL_STRING | LABEL_CLASS |
| --- | --- |
| CCn1c2c(c3cc(OC)c(OC)cc3c1=O)Cc1cc3c(cc1-2)OCO3 | No |
| COc1cc2c3c(n(CCCNCCO)c(=O)c2cc1OC)-c1ccc2ccccc2c1C3=O | Yes |

Here's an entry: "CCCCn1c2c(c3cc(OC)c(OC)cc3c1=O)Cc1cc3c(cc1-2)OCO3" . Is its GI50 below 300 nM? No

Say whether its GI50 is strictly beneath 300 nM. Entry: "COc1cc2c(cc1OC)-c1c(c3cc(OC)c(OC)cc3c(=O)n1CCCNCCCCO)C2=O.Cl" Yes

Hello, I'm reviewing records and need to know if GI50 of "CC[C@@]1(O)C(=O)OCc2c1cc1n(c2=O)Cc2cc3ccccc3nc2-1" is below 300 nM. Could you check? Yes

Would you kindly verify if GI50 of "COc1cc2c3c(n(CCCNCCO)c(=O)c2cc1OC)-c1cc2c(cc1C3=O)OCO2.Cl" is strictly less than 300 nM? Yes

I'd appreciate it if you could check whether "COc1cc2c(cc1OC)-c1c(c3ccccc3c(=O)n1CCCN)C2=O.Cl" has GI50 smaller than 300 nM. Yes

Field: below-cutoff. Rule: recorded GI50 strictly less than 300 nM. Subject: "COc1cc2c3c(n(CCCN)c(=O)c2cc1OC)-c1ccc2ccccc2c1C3=O.Cl" No

For "COc1cc2c(cc1OC)-c1c(c3cc(OC)c(OC)cc3c(=O)n1CCCBr)C2=O" , is the recorded GI50 below the cut-off of 300 nM? No

* * *

test system: HOP-62; assay: Antiproliferative activity was determined for 50% growth inhibition against human lung HOP-62 cell line; type: functional; conditions: Homo sapiens, HOP-62
The entries below are paired with their reported GI50.
Report the figure in µM without appending any unit label.

# count of solved cases: 5
| CHEMICAL_STRING | ASSAY_VALUE |
| --- | --- |
| O=C1c2cc3c(cc2-c2c1c1ccccc1c(=O)n2CCCNCCCO)OCO3 | 7.17 |
| O=C1c2ccccc2-c2c1c1ccccc1c(=O)n2CCO | 5.62 |
| COc1cc2c(cc1OC)-c1c(c3ccccc3c(=O)n1CCCNCCO)C2=O.Cl | 0.62 |
| COc1cc2c3c(n(CCCBr)c(=O)c2cc1OC)-c1cc2c(cc1C3=O)OCO2 | 6.22 |
| COc1cc2c3c(n(CCCCl)c(=O)c2cc1OC)-c1cc2c(cc1C3=O)OCO2 | 40.4 |

Next, consider the following compound.
For the compound shown here, "O=C1c2ccccc2-c2c1c1ccccc1c(=O)n2O" , give the reported GI50. 56.6

* * *

test system: DU-145; assay: Antiproliferative activity was determined for 50% growth inhibition against human Prostate DU-145 cell line; format: functional; settings: Homo sapiens, DU-145
QUANTITY_NAME: GI50

| CHEMICAL_STRING | TARGET_ENTITY | GI50 |
| --- | --- | --- |
| COc1cc2c3c(n(CCCNCCO)c(=O)c2cc1OC)-c1cc2c(cc1C3=O)OCO2 | DU-145 | 0.02 µM |

Which GI50 value is on record for "COc1cc2c(cc1OC)-c1c(c3ccccc3c(=O)n1CCCN)C2=O.Cl" ? 0.89 µM

Which GI50 is listed for "COc1cc2c(cc1OC)-c1c(c3ccccc3c(=O)n1CCCNCCO)C2=O.Cl" ? 0.44 µM

Which value of GI50 has been reported for "COc1cc2c3c(n(CCCN=[N+]=[N-])c(=O)c2cc1OC)-c1cc2c(cc1C3=O)OCO2" in the records? 3.19 µM

Suppose we examine the compound "O=C1c2cc3c(cc2-c2c1c1ccccc1c(=O)n2CCCNCCCO)OCO3" ; what GI50 value has been reported? 16.7 µM

Query (compound): "COc1cc2c3c(n(CCCBr)c(=O)c2cc1OC)-c1cc2c(cc1C3=O)OCO2" ; field requested: GI50 3.2 µM

Param item = "COc1cc2c3c(n(CCCCl)c(=O)c2cc1OC)-c1cc2c(cc1C3=O)OCO2" ; retrieve measured GI50. 16.8 µM

Need GI50 of "O=C1c2ccccc2-c2c1c1ccccc1c(=O)n2CCCl" , thanks. 3.5 µM

What measured GI50 goes with "COc1cc2c(cc1OC)-c1c(c3ccccc3c(=O)n1CCCCl)C2=O" ? > 100 µM

Entry under review: "COc1cc2c3c(n(CCCNCCO)c(=O)c2cc1OC)-c1ccc2ccccc2c1C3=O" . Reported GI50? 0.28 µM
